- Protocol Text: Solubility was determined
- Format: physicochemical
Measured Metric: solubility (mg/mL)
Answers are plain numbers, in mg/mL.

[in] Give the measured solubility for CC(=O)NC1C(O)CC(OCCOCCOCCNC(=O)O[C@H]2C[C@H]3OC[C@@]3(OC(C)=O)C3[C@H](OC(=O)c4ccccc4)[C@]4(O)C[C@H](OC(=O)[C@H](O)[C@@H](NC(=O)c5ccccc5)c5ccccc5)C(C)=C([C@@H](OC(C)=O)C(=O)[C@@]32C)C4(C)C)(C(=O)O)OC1[C@H](O)[C@@H](O)CO (stereo partly specified)
[out] 28
